kd mutant/kd wt reference
Biological target: T1, human TGFβ3 (human, UniProt P10600 301-412)
T1 sequence: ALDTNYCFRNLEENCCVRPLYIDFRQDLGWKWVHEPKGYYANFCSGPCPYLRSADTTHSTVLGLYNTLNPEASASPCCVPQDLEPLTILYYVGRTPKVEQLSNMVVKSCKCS
Assay: Biacore off-rate vs wt GC1008
Procedure: Plasmids encoding either the GC1008 heavy chain or light chain were used as a template in PCR-based mutagenesis reactions. […] Purified variant antibody samples were analyzed in duplicate on a Biacore® 3000 (GE Healthcare) at 50 nM concentrations, using the 100 RU level TGFβ1, 2, and 3 immobilized surfaces. […]

| BINDER | kd mutant/kd wt |
| --- | --- |
| I54W (antibody, V domains shown, GC1008 IgG4 variant) VH: QVQLVQSGAEVKKPGSSVKVSCKASGYTFSSNVISWVRQAPGQGLEWMGGVIPWVDIANYAQRFKGRVTITADESTSTTYMELSSLRSEDTAVYYCASTLGLVLDAMDYWGQGTLVTVSS VL: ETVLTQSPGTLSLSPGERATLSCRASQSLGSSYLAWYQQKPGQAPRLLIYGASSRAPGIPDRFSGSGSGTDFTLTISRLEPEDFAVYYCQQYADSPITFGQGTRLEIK | 1.7 |
| E74W (antibody, V domains shown, GC1008 IgG4 variant) VH: QVQLVQSGAEVKKPGSSVKVSCKASGYTFSSNVISWVRQAPGQGLEWMGGVIPIVDIANYAQRFKGRVTITADWSTSTTYMELSSLRSEDTAVYYCASTLGLVLDAMDYWGQGTLVTVSS VL: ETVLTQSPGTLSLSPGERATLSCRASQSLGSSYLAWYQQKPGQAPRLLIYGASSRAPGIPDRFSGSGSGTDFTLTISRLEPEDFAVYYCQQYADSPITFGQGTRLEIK | 0.3 |
| I54N (antibody, V domains shown, GC1008 IgG4 variant) VH: QVQLVQSGAEVKKPGSSVKVSCKASGYTFSSNVISWVRQAPGQGLEWMGGVIPNVDIANYAQRFKGRVTITADESTSTTYMELSSLRSEDTAVYYCASTLGLVLDAMDYWGQGTLVTVSS VL: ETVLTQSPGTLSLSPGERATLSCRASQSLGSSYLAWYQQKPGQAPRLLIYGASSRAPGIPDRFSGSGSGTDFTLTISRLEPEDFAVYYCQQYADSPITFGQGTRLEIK | 4.3 |
